system: batrachotoxin (BTX) binding site of the sodium channel; test: Affinity to the batrachotoxin (BTX) binding site of the sodium channel; settings: rat cerebrocortex synaptosomes, [3H]-batrachotoxinin A20 α-benzoate 10 nM; test concentration not given
assay-metric: BTX Inhibition

{"compound": "CCCCN1C(=O)C(CCSC)NC12CCN(S(=O)(=O)c1cccc(C)c1)CC2 (stereo not shown)", "BTX Inhibition": 32}

I am curious: what BTX Inhibition value has been reported for CCCCN1C(=O)C(Cc2ccccc2)NC12CCN(S(=O)(=O)c1ccc(CC)cc1)CC2 (stereo not shown) ? 54

What measured BTX Inhibition goes with CCc1ccc(S(=O)(=O)N2CCC3(CC2)NC(Cc2ccccc2)C(=O)N3Cc2ccccc2)cc1 (stereo not shown) ? 54

Consider the compound CCOC(=O)CN1C(=O)C(Cc2ccccc2)NC12CCN(C(=O)NCc1ccc(Cl)c(Cl)c1)CC2 (stereo not shown) and give its measured BTX Inhibition. 77
